molecular target: AgCyk3; experiment: SPOT peptide array binding signal intensity (averaged, normalized) (arbitrary units (background-subtracted, floor 0; scale differs between SH3 domains)); higher = stronger binding of the SH3 domain to the peptide
QUANTITY MEASURED: SPOT peptide array binding signal intensity

BINDER: PSRRDSLSIPRAVDA
LIMIT OPERATOR: ≤
REPORTED MEASUREMENT: 0
--
BINDER: APERAVPILPPRNNV
LIMIT OPERATOR: =
REPORTED MEASUREMENT: 9
--
BINDER: RRRDFGAPANKRPRR
LIMIT OPERATOR: =
REPORTED MEASUREMENT: 5
--
BINDER: GTIARPLFLVVLFFI
LIMIT OPERATOR: =
REPORTED MEASUREMENT: 8
--
BINDER: PPPPPPPPPPLPQSL
LIMIT OPERATOR: =
REPORTED MEASUREMENT: 1
--
BINDER: HGKRRAPLLLAKLDV
LIMIT OPERATOR: =
REPORTED MEASUREMENT: 7
--
BINDER: TKFRISLGLPVGAIM
LIMIT OPERATOR: =
REPORTED MEASUREMENT: 66
--
BINDER: ATKSASPTLPTRRSR
LIMIT OPERATOR: =
REPORTED MEASUREMENT: 2
--
BINDER: FVLRYYILIPHEQWD
LIMIT OPERATOR: =
REPORTED MEASUREMENT: 13.5
--
BINDER: RVTRKRPREPKSTND
LIMIT OPERATOR: =
REPORTED MEASUREMENT: 3
--
BINDER: RRSKSLPTTPGIRSG
LIMIT OPERATOR: =
REPORTED MEASUREMENT: 4
--
BINDER: RTRRRPPPPPIPSTQ
LIMIT OPERATOR: =
REPORTED MEASUREMENT: 2
--
BINDER: WRPRIVPILPYITRL
LIMIT OPERATOR: =
REPORTED MEASUREMENT: 9
--
BINDER: AAAPKHAPPPVPNET
LIMIT OPERATOR: ≤
REPORTED MEASUREMENT: 0
--
BINDER: DHPKGPPPPPPPDEK
LIMIT OPERATOR: ≤
REPORTED MEASUREMENT: 0
--
BINDER: IKKRNKIRLPSGSPE
LIMIT OPERATOR: =
REPORTED MEASUREMENT: 7
--
BINDER: NFKRLLPRDPSEKSS
LIMIT OPERATOR: =
REPORTED MEASUREMENT: 0.5
--
BINDER: RRRIAYPFYPFKKLG
LIMIT OPERATOR: =
REPORTED MEASUREMENT: 1
--
BINDER: QPWTDQFEKLEKEVS
LIMIT OPERATOR: =
REPORTED MEASUREMENT: 1.5
--
BINDER: NMLSRPRLAKLPSIR
LIMIT OPERATOR: ≤
REPORTED MEASUREMENT: 0
--
BINDER: SRYRRPLTLLLLKPF
LIMIT OPERATOR: =
REPORTED MEASUREMENT: 1
--
BINDER: VPKEPAPAPPPEPDM
LIMIT OPERATOR: ≤
REPORTED MEASUREMENT: 0
--
BINDER: QDKEGIPPDQQRLIF
LIMIT OPERATOR: ≤
REPORTED MEASUREMENT: 0
--
BINDER: TKIRRRPQQPLTDFT
LIMIT OPERATOR: =
REPORTED MEASUREMENT: 2
--
BINDER: SSAAPPPPPRRATPE
LIMIT OPERATOR: ≤
REPORTED MEASUREMENT: 0
--
BINDER: ILARAILTIPRVLDK
LIMIT OPERATOR: =
REPORTED MEASUREMENT: 11
--
BINDER: KRNRLKILLPFLEQS
LIMIT OPERATOR: =
REPORTED MEASUREMENT: 0.5
--
BINDER: FYHRPAPKPPVTKKV
LIMIT OPERATOR: =
REPORTED MEASUREMENT: 6
--
BINDER: KDKKTKPTPPPKPSH
LIMIT OPERATOR: ≤
REPORTED MEASUREMENT: 0
--
BINDER: GQYRRTIVIPRRFFT
LIMIT OPERATOR: =
REPORTED MEASUREMENT: 42.5

From: the supplement of paper PMC4466140
